Test system: corneal neovascularization in BALB/c mice
Assay: Alkali-burn corneal neovascularization in BALB/c mice (CD31 microvessel density); note: test concentration or dose not given here
Assay type: in vivo, mouse
Conditions: microvessel density (CD31) of cornea, day 14 after alkali burn; intravitreal once a day for 1 week
Marks after values point to notes of the source that are not given here. Where no end group is shown, it is not given here.
Reported MVD values for the following substances.
PROPERTY_LABEL: MVD

[
  {
    "SUBSTANCE": "mPEG-ALD5k-Arg-Gly-Ala-Asp-Arg-Ala-Gly-Gly-Gly-Gly-Arg-Gly-Asp ({mPEG‑ALD 5 kDa}-RGADRAGGGGRGD) [mPEG-ALD5k-HM-1]",
    "PROPERTY_LABEL": "MVD",
    "OBSERVED_RESULT": "36.64 ± 3.909*"
  },
  {
    "SUBSTANCE": "mPEG2-NHS20k-Arg-Gly-Ala-Asp-Arg-Ala-Gly-Gly-Gly-Gly-Arg-Gly-Asp ({mPEG2‑NHS 20 kDa}-RGADRAGGGGRGD) [mPEG2-NHS20k-HM-1]",
    "PROPERTY_LABEL": "MVD",
    "OBSERVED_RESULT": "38.46 ± 4.528**"
  },
  {
    "SUBSTANCE": "mPEG2-NHS40k-Arg-Gly-Ala-Asp-Arg-Ala-Gly-Gly-Gly-Gly-Arg-Gly-Asp ({mPEG2‑NHS 40 kDa}-RGADRAGGGGRGD) [mPEG2-NHS40k-HM-1]",
    "PROPERTY_LABEL": "MVD",
    "OBSERVED_RESULT": "37.91 ± 4.273**"
  },
  {
    "SUBSTANCE": "mPEG-SC10k-Arg-Gly-Ala-Asp-Arg-Ala-Gly-Gly-Gly-Gly-Arg-Gly-Asp ({mPEG‑SC 10 kDa}-RGADRAGGGGRGD) [mPEG-SC10k-HM-1]",
    "PROPERTY_LABEL": "MVD",
    "OBSERVED_RESULT": "31.92 ± 3.648**"
  },
  {
    "SUBSTANCE": "mPEG2-NHS5k-Arg-Gly-Ala-Asp-Arg-Ala-Gly-Gly-Gly-Gly-Arg-Gly-Asp ({mPEG2‑NHS 5 kDa}-RGADRAGGGGRGD) [mPEG2-NHS5k-HM-1]",
    "PROPERTY_LABEL": "MVD",
    "OBSERVED_RESULT": "39.95 ± 3.985*"
  }
]

The reported numbers originate from patent US10869931B2.
